- Read-out: Interleukin-8 (IL8), CXCL8 (gene 3576)
- Assay Explanation: BSK_SAg_IL8: BioMAP Diversity Plus: SAg Assay for Interleukin-8 (IL8) Biomarker Activity (AID 2283094)
- Settings: primary human HUVEC with PBMC; actives raise or lower the signal
Activity calls are given as the source filed them. How the source made its calls: active means hit-call score of the fitted dose curve at least 0.9, where 1 is the maximum; inactive means score below 0.9.
Answer with one of the outcomes class 1 (active), class 0 (inactive)

The examples below pair each entry with its known result.
| Compound | Classification |
| --- | --- |
| CCC(C)(C)C1CCC(O)CC1 (stereo unspecified) | class 0 |
| CCCOC(=O)c1ccc(O)cc1 | class 0 |
| CC(C)CCCCCCOC(=O)CCCCC(=O)OCCCCCCC(C)C | class 0 |
| CCN(CC)CCNc1ccc(CNC=O)c2sc3ccc(OC)cc3c(=O)c12 | class 1 |
| c1ccc2cc3c(ccc4ccccc43)cc2c1 | class 0 |
| OC1CCCCC1 | class 0 |

Now consider a different compound.
Ask: Please share the test call associated with "C=C(C)C(=O)OCCC(F)(F)C(F)(F)C(F)(F)C(F)(F)C(F)(F)C(F)(F)F" .
Result: class 0

====

- Read-out: Matrix Metallopeptidase 1 (MMP1), MMP1 (gene 4312)
- Assay Explanation: BSK_hDFCGF_MMP1: BioMAP Diversity Plus: hDFCGF Assay for Matrix Metallopeptidase 1 (MMP1) Biomarker Activity (AID 2283064)
- Settings: primary human foreskin fibroblasts; actives raise or lower the signal
Activity calls are given as the source filed them. The calls were made as follows: active = hit-call score of the fitted dose curve at least 0.9, where 1 is the maximum; inactive = score below 0.9.
Field 'call' accepts active, inactive

| Chemical Smiles | Classification |
| --- | --- |
| OC1CCCCC1 | inactive |
| CCCCCCCCCCCCN1CCCC1=O | active |
| CCCCOCCO | inactive |

Ask: Which outcome did this test record for the compound "CCC(=C(c1ccc(O)cc1)c1ccc(OCCN(C)C)cc1)c1ccccc1" ?
Result: active

====

- Read-out: Insulin Like Growth Factor 1 (IGF1), IGF1 (gene 3479)
- Assay Explanation: LTEA_HepaRG_IGF1: Life Technologies and Expression Analysis (LTEA) Assay for Insulin Like Growth Factor 1 (IGF1) using HepaRG (AID 2283506)
- Settings: mRNA level, 48 h; actives raise or lower the signal
Calls of active or inactive are those of the source. Rule for the calls: active = hit-call score of the fitted dose curve at least 0.9, where 1 is the maximum; inactive = score below 0.9.
Pick one and only one: 1.0 = active, 0.0 = inactive

Study these solved cases before continuing.
| Compound | Classification |
| --- | --- |
| CCOC(=O)CC(O)(CC(=O)OCC)C(=O)OCC | 0.0 |
| Nc1cccc2c(N)cccc12 | 0.0 |
| CCCCCCCC(=O)O | 0.0 |
| CCCCC(CC)COC(=O)CCCCC(=O)OCc1ccccc1 (stereo unspecified) | 0.0 |

Ask: Status in this test for "c1ccc2c(c1)Cc1ccccc1-2" ?
Result: 0.0

Ask: Call for entry "CCCOc1sc(C(=O)N2CCC(c3cc(CN)ccc3F)CC2)c(C)c1Br" :
Result: 0.0

Ask: Which outcome did this test record for the compound "CC(C)CCCCCCOC(=O)CCCCC(=O)OCCCCCCC(C)C" ?
Result: 0.0

Ask: Test call for this compound, please: "COc1ccc([N+](=O)[O-])cc1N"
Result: 0.0

Ask: Check the results log: what was the call for CCc1nn(C2CCCCC2)c2cc(C3(C#N)CCC(C(=O)O)CC3)ccc12 (stereo unspecified) ?
Result: 1.0

Ask: Please let me know the test result on file for "CCCCCCCCCCCCCCCS(=O)(=O)Oc1ccccc1" .
Result: 1.0

Ask: What did this assay record as the result for "CC(C)(C)c1ccc(O)c(C(C)(C)C)c1" ?
Result: 0.0

====

- Read-out: Interleukin-1 alpha (IL1a), IL1A (gene 3552)
- Assay Explanation: BSK_BE3C_IL1a: BioMAP Diversity Plus: BE3C Assay for Interleukin-1 alpha (IL1a) Biomarker Activity (AID 2283016)
- Settings: primary human bronchial epithelial cells; actives raise or lower the signal
Active and inactive are the calls of the source. The calls were made as follows: active = hit-call score of the fitted dose curve at least 0.9, where 1 is the maximum; inactive = score below 0.9.
Allowed answers: active, inactive

| Molecule | Classification |
| --- | --- |
| CCCCCCCCCCCCCCCS(=O)(=O)Oc1ccccc1 | inactive |
| CCCCOCCO | inactive |
| O=C(O)c1ccccc1C(c1ccc(O)cc1)c1ccc(O)cc1 | inactive |
| OC1CCC(C2CCCCC2)CC1 (stereo not given) | inactive |
| CCCOC(=O)c1ccc(O)cc1 | inactive |
| CC(C)(C)CC(C)(C)c1ccc(O)c(-n2nc3ccccc3n2)c1 | inactive |
| c1ccc2cc3c(ccc4ccccc43)cc2c1 | inactive |
| COCC(C)OCC(C)O (stereo not given) | inactive |
| COC(=O)CCCCC(=O)OC | inactive |
| CC[C@H](c1ccc(O)cc1)[C@@H](CC)c1ccc(O)cc1 | active |

Ask: Short answer needed: outcome of this test for "CC[C@H](C)[C@@H](C(=O)O)n1sc2ccccc2c1=O" ?
Result: inactive

Ask: In this assay, the call recorded for CC(O)CO (stereo not given) was what?
Result: inactive

Ask: Which result was noted for this molecule in the test: "CC(C)CCCCCCOC(=O)CCCCC(=O)OCCCCCCC(C)C"
Result: inactive

Ask: Tell me the recorded outcome of this test for "COc1ccc([N+](=O)[O-])cc1N" .
Result: inactive

Ask: Lab log entry: NC(=O)N1C(=O)C(C(=O)c2cc(Cl)cs2)c2cc(F)c(Cl)cc21 (stereo not given) — outcome as called in the assay?
Result: active

Ask: # fetch the recorded call for "CC(C)(C)c1cccc(C(C)(C)C)c1O" here
Result: inactive

Ask: For this molecule, state the assay outcome: "O=c1c(-c2ccc(O)cc2)coc2cc(O)ccc12"
Result: inactive

Ask: Which outcome was assigned to "c1ccc2c(c1)ccc1ccccc12" in this test?
Result: inactive

Ask: Each molecule tested received a call. Report the one for "CC1=C(/C=C/C(C)=C/C=C/C(C)=C/C(=O)O)C(C)(C)CCC1" .
Result: inactive

====

- Assay Explanation: BSK_LPS_PGE2: BioMAP Diversity Plus: LPS Assay for Prostaglandin E2 (PGE2) Biomarker Activity (AID 2283082)
- Settings: primary human HUVEC with PBMC; actives raise or lower the signal
Active and inactive are the calls of the source. Rule for the calls: active = hit-call score of the fitted dose curve at least 0.9, where 1 is the maximum; inactive = score below 0.9.
Outcomes you can answer with include only these: 1 for active, 0 for inactive

Sample answers from the record:
| Compound | Classification |
| --- | --- |
| CCCCCCCCCCCCCC[N+](C)(C)C | 0 |
| CCCCCCCC(=O)O | 0 |
| O=C(O)c1ccccc1C(c1ccc(O)cc1)c1ccc(O)cc1 | 0 |
| NC(=O)N(O)[C@@H]1C=C[C@H](Oc2cccc(Oc3ccc(F)cc3)c2)C1 | 1 |
| c1ccc2c(c1)ccc1ccccc12 | 0 |

Ask: Entry OC1CCC(C2CCCCC2)CC1 (stereo not drawn) : call = ?
Result: 0

Ask: Kindly provide the recorded test outcome for the following compound: "COc1ccc([N+](=O)[O-])cc1N"
Result: 0

Ask: Given CCc1ccc(CCOc2ccc(CC3SC(=O)NC3=O)cc2)nc1 (stereo not drawn) , state the outcome it received in this test.
Result: 0

====

- Read-out: Interferon-gamma inducible Protein 10 (IP10), CXCL10 (gene 3627)
- Assay Explanation: BSK_BE3C_IP10: BioMAP Diversity Plus: BE3C Assay for Interferon-gamma inducible Protein 10 (IP10) Biomarker Activity (AID 2283034)
- Settings: primary human bronchial epithelial cells; actives raise or lower the signal
The source made the active and inactive calls. The calls were made as follows: active = hit-call score of the fitted dose curve at least 0.9, where 1 is the maximum; inactive = score below 0.9.
The categories you may choose from are YES for active, NO for inactive

Some solved cases for reference:
| Chemical Smiles | Classification |
| --- | --- |
| CCCOC(=O)c1ccc(O)cc1 | NO |
| C#C[C@]1(O)CC[C@H]2[C@@H]3CCC4=CC(=O)CC[C@@H]4[C@H]3CC[C@@]21C | NO |
| CCCCCCCCCCCCc1ccccc1S(=O)(=O)O | YES |

Ask: Recorded call for "CC[C@H](C)[C@@H](C(=O)O)n1sc2ccccc2c1=O" ?
Result: NO

Ask: So what was the verdict on "OCCC(F)(F)C(F)(F)C(F)(F)C(F)(F)C(F)(F)C(F)(F)F" in this test?
Result: NO

Ask: Assay result, entry "Cc1oc(-c2ccccc2)nc1CCOc1ccc(C[C@H](Nc2ccccc2C(=O)c2ccccc2)C(=O)O)cc1" — outcome?
Result: YES

====

- Read-out: Fatty acid synthase (Homo sapiens)
- Assay Explanation: LTEA_HepaRG_FASN: Life Technologies and Expression Analysis (LTEA) Assay for Fatty Acid Synthase (FASN) using HepaRG (AID 2283448)
- Settings: mRNA level, 48 h; actives raise or lower the signal
Activity calls are given as the source filed them. The calls were made as follows: active = hit-call score of the fitted dose curve at least 0.9, where 1 is the maximum; inactive = score below 0.9.
Outcomes you can answer with include only these: true (1) (active), false (0) (inactive)

Here are 4 molecules together with their reported answers.
| Molecule | Classification |
| --- | --- |
| COCC(C)O (stereo not given) | false (0) |
| CCCCOCCO | false (0) |
| CC(=O)NC1(c2cccc(F)c2)CCN(CC[C@@]2(c3ccc(Cl)c(Cl)c3)CN(c3ccccc3)C(=O)CO2)CC1 | false (0) |
| CCCCCCCCCCCCN1CCCC1=O | false (0) |

Ask: Which outcome was entered for the molecule "Cc1cc(CCN2CCN(c3nsc4ccccc34)CC2)cc2c1NC(=O)CC2(C)C" in this test?
Result: true (1)

Ask: Could you please tell me the result logged for "O=C(O)c1ccccc1C(c1ccc(O)cc1)c1ccc(O)cc1" in this assay?
Result: false (0)

Ask: Per the assay record, what outcome was assigned to "c1ccc2cc3c(ccc4ccccc43)cc2c1" ?
Result: true (1)

Ask: Could you kindly confirm the outcome this assay logged for NC(=O)N1C(=O)C(C(=O)c2cc(Cl)cs2)c2cc(F)c(Cl)cc21 (stereo not given) ?
Result: false (0)
